# System: Rattus norvegicus
# MEASUREMENT NOTES: Total drug recovery in female Sprague-Dawley rat treated with [14C]-AMG 221 at 2 mg/kg, po measured over 48 hrs by liquid scintillation counting analysis
# Assay type: ADME, organism-based
# Parameters: dose 2 mg/kg, route oral
# EXPERIMENTAL CONDITIONS: in vivo
PROPERTY NAME: Drug recovery (%)

// known answers, use as guide
{"columns": ["SMILES STRUCTURE", "QUANTITATIVE RESULT"],
 "data": [
  ["C[C@@H](CO)[C@]1(C)SC(N[C@H]2C[C@H]3C[C@@H]2C[C@H]3O)=NC1=O", 0.1],
  ["C=C(C)[C@]1(C)SC(N[C@H]2C[C@H]3C[C@@H]2C[C@@H]3O)=NC1=O", 0.8],
  ["CC(C)(O)[C@]1(C)SC(N[C@H]2C[C@@H]3CC[C@H]2C3)=NC1=O", 0.9],
  ["C=C(C)[C@]1(C)SC(N[C@H]2C[C@H]3C[C@@H]2[C@H](O)C3)=NC1=O", 0.1],
  ["C[C@H](CO)[C@]1(C)SC(N[C@H]2C[C@@H]3CC[C@H]2C3)=NC1=O", 2.6]
]}

[a] C[C@@H](CO)[C@]1(C)SC(N[C@H]2C[C@@H]3CC[C@H]2C3)=NC1=O
[b] CC(C)[C@]1(C)SC(N[C@H]2C[C@H]3C[C@@H]2C[C@@H]3OS(=O)(=O)O)=NC1=O
[c] C[C@@H](CO)[C@]1(C)SC(N[C@H]2C[C@H]3C[C@@H]2CC3=O)=NC1=O
Task: Output the entries ranked by Drug recovery from maximum down to minimum. Your reply should list the labels following the order given in the request.
Output: b, c, a
(b: 6%, c: 2.1%, a: 0.8%)

[a] CC(C)[C@]1(C)SC(N[C@H]2C[C@H]3C[C@@H]2C[C@H]3O)=NC1=O
[b] C[C@@H](CO)[C@]1(C)SC(N[C@H]2C[C@H]3C[C@@H]2C[C@@H]3O)=NC1=O
Task: Given the listed records, identify the one among a and b with higher Drug recovery. # answer = label of selected item
Output: a
(a: 4.7%, b: 2.9%)

Provenance of the data: ChEMBL document CHEMBL3525943
